Biological target: HLA B*0801 (Homo sapiens, UniProt P01889, A93T/A95T/D138N/E176V/E187T/K202T/Q94N/R180D/S35A/V36M/Y33D/Y91F)
Experiment: biochemical
Where a SMILES comes first, the peptide text is derived from it.
The entries below come with measured IC50 values attached.
Give just the number in nM; leave the unit off.

compound="CC[C@H](C)[C@H](NC(=O)[C@H](CO)NC(=O)[C@H](CCSC)NC(=O)[C@H](CC(C)C)NC(=O)[C@H](CCCNC(=N)N)NC(=O)[C@H](CC(N)=O)NC(=O)[C@H](CO)NC(=O)[C@H](CC(N)=O)NC(=O)[C@@H](N)CO)C(=O)O [3102.0713] (H-SNSNRLMSI-OH)" measurement_unit=nM value_reported=10
compound="CC[C@H](C)[C@H](N)C(=O)N[C@@H](CC(C)C)C(=O)N[C@@H](Cc1c[nH]cn1)C(=O)N[C@@H](Cc1c[nH]cn1)C(=O)N[C@@H](Cc1c[nH]cn1)C(=O)N[C@@H](CCCNC(=N)N)C(=O)N[C@@H](CC(N)=O)C(=O)N[C@H](C(=O)N[C@@H](Cc1ccccc1)C(=O)O)C(C)C [3102.1250] (H-ILHHHRNVF-OH)" measurement_unit=nM value_reported=13
compound="C[C@H](NC(=O)[C@H](CCCCN)NC(=O)[C@H](Cc1ccccc1)NC(=O)[C@H](CCCCN)NC(=O)[C@H](CC(=O)O)NC(=O)[C@H](CCCNC(=N)N)NC(=O)[C@H](CC(N)=O)NC(=O)[C@@H](N)Cc1ccc(O)cc1)C(=O)N[C@@H](Cc1ccccc1)C(=O)O [3102.0564] (H-YNRDKFKAF-OH)" measurement_unit=nM value_reported=20
compound="CC(C)C[C@H](NC(=O)[C@H](CC(C)C)NC(=O)[C@@H](N)CCCCN)C(=O)N[C@@H](CO)C(=O)N[C@@H](Cc1c[nH]cn1)C(=O)N[C@@H](Cc1ccccc1)C(=O)N[C@@H](Cc1ccc(O)cc1)C(=O)N1CCC[C@H]1C(=O)N[C@@H](C)C(=O)O [3102.0665] (H-KLLSHFYPA-OH)" measurement_unit=nM value_reported=81
compound="CC[C@H](C)[C@H](NC(=O)[C@H](CC(=O)O)NC(=O)[C@H](CC(C)C)NC(=O)[C@H](CCCCN)NC(=O)[C@H](CCCCN)NC(=O)[C@H](CCCNC(=N)N)NC(=O)[C@H](CCCCN)NC(=O)[C@@H](NC(=O)[C@@H](N)Cc1ccccc1)C(C)C)C(=O)O [3102.0707] (H-FVKRKKLDI-OH)" measurement_unit=nM value_reported=3
compound="CC[C@H](C)[C@H](NC(=O)[C@H](CCCNC(=N)N)NC(=O)[C@H](Cc1c[nH]cn1)NC(=O)[C@H](CS)NC(=O)[C@@H](NC(=O)[C@@H](N)CCSC)C(C)C)C(=O)N[C@@H](CC(C)C)C(=O)N[C@H](C(=O)N[C@@H](Cc1ccc(O)cc1)C(=O)O)[C@@H](C)O [3102.0849] (H-MVCHRILTY-OH)" measurement_unit=nM value_reported=220

Specify IC50 for CSCC[C@H](N)C(=O)N[C@@H](Cc1ccccc1)C(=O)NCC(=O)N[C@H](C(=O)N[C@@H](CCCNC(=N)N)C(=O)N[C@@H](CCCCN)C(=O)N[C@@H](CC(N)=O)C(=O)N[C@@H](CO)C(=O)N[C@@H](Cc1ccccc1)C(=O)O)[C@@H](C)O [3102.0718] (H-MFGTRKNSF-OH) and stop.
2

* * *

Target: HLA A*6802 (Homo sapiens, UniProt P04439, A269V/D140Y/D185E/E176V/E277Q/E87N/F33Y/G231S/I121R/I166T/I218V/L180W/L300P/L318F/N151K/P208A/P217A/Q86R/R138H/R169H/S129P/T345S/V36M)
Format: binding
assay_readout: Normalized average relative binding affinity (ARB), HLA A*6802
Respond using a number only.

Please supply the value of reported Normalized average relative binding affinity (ARB), HLA A*6802 for the item CXXXXXXXX [3064.0002]
0.13

Return value of Normalized average relative binding affinity (ARB), HLA A*6802 for input XXMXXXXXX [3064.0051] , no commentary.
1.0

Tell me its Normalized average relative binding affinity (ARB), HLA A*6802 given XXIXXXXXX [3064.0048] as the entry.
0.38

Write down Normalized average relative binding affinity (ARB), HLA A*6802 measured for item MXXXXXXXX [3064.0011]
0.75

Output Normalized average relative binding affinity (ARB), HLA A*6802 of XAXXXXXXX [3064.0021]
0.12

Answer with the recorded Normalized average relative binding affinity (ARB), HLA A*6802 for the sequence listed here: XXRXXXXXX [3064.0055]
0.018

Identify Normalized average relative binding affinity (ARB), HLA A*6802 associated with the sequence XTXXXXXXX [3064.0037]
0.63

Return value of Normalized average relative binding affinity (ARB), HLA A*6802 for input XXEXXXXXX [3064.0044] , no commentary.
0.046

Name the recorded Normalized average relative binding affinity (ARB), HLA A*6802 of the sequence listed here: XEXXXXXXX [3064.0024]
0.0068

Please look at this sequence and report its Normalized average relative binding affinity (ARB), HLA A*6802: FXXXXXXXX [3064.0005]
0.53

* * *

Target: HLA B*0801 (Homo sapiens, UniProt P01889, A93T/A95T/D138N/E176V/E187T/K202T/Q94N/R180D/S35A/V36M/Y33D/Y91F)
Assay: biochemical
Where a SMILES comes first, the peptide text is derived from it.
assay_readout: IC50 (nM)
Only the number, expressed in nM, is required.

// worked examples, IC50 included
compound="CC[C@H](C)[C@H](NC(=O)[C@H](CCSC)NC(=O)[C@H](CC(C)C)NC(=O)[C@@H]1CCCN1C(=O)[C@@H](N)CCCNC(=N)N)C(=O)N[C@@H](Cc1ccccc1)C(=O)N[C@@H](CCSC)C(=O)N[C@@H](CO)C(=O)NCC(=O)O [3102.0609] (H-RPLMIFMSG-OH)" assay_readout=IC50 value_reported=12
compound="CSCC[C@H](NC(=O)[C@@H](NC(=O)[C@H](CO)NC(=O)CNC(=O)[C@H](CC(=O)O)NC(=O)[C@@H](NC(=O)[C@@H](NC(=O)[C@H](CCSC)NC(=O)[C@@H](N)Cc1ccc(O)cc1)C(C)C)C(C)C)C(C)C)C(=O)O [3102.1153] (H-YMVVDGSVM-OH)" assay_readout=IC50 value_reported=390
compound="CC(C)C[C@H](NC(=O)[C@H](Cc1ccccc1)NC(=O)[C@H](C)NC(=O)[C@H](Cc1ccccc1)NC(=O)[C@H](CCCNC(=N)N)NC(=O)[C@H](Cc1ccc(O)cc1)NC(=O)[C@H](CCCNC(=N)N)NC(=O)[C@H](CC(N)=O)NC(=O)[C@@H](N)CC(N)=O)C(=O)O [3102.0568] (H-NNRYRFAFL-OH)" assay_readout=IC50 value_reported=31

Complete the entry with IC50 for CC[C@H](C)[C@H](NC(=O)[C@@H](NC(=O)[C@H](C)N)[C@@H](C)O)C(=O)N[C@@H](CCC(N)=O)C(=O)N[C@@H](CCCNC(=N)N)C(=O)N[C@@H](Cc1ccccc1)C(=O)N[C@@H](CO)C(=O)N[C@@H](CO)C(=O)N[C@@H](CC(C)C)C(=O)O [3102.0756] (H-ATIQRFSSL-OH)
3.3

* * *

Listed here: items and their measured Normalized average relative binding affinity (ARB), HLA B*5401.
Biological target: HLA B*5401 (Homo sapiens, UniProt P01889, A329T/C349S/D138N/D201E/E176V/E187T/E204Q/E69G/I76V/K202T/L119W/R155S/R180L/S121T/S35A/S48A/V127L/V306I/V36M/Y140L)
Type: binding
Lab note: write the figure by itself, no unit.

Please review the entries below; each comes with its answer.
sequence_text="XXXAXXXXX [3064.0061]" value_reported=0.41
sequence_text="AXXXXXXXX [3064.0001]" value_reported=0.014
sequence_text="XWXXXXXXX [3064.0039]" value_reported=0.0040

Return value of Normalized average relative binding affinity (ARB), HLA B*5401 for input XPXXXXXXX [3064.0033] , no commentary.
0.19

Let me know recorded Normalized average relative binding affinity (ARB), HLA B*5401 for XXEXXXXXX [3064.0044] , thanks.
0.0049

Specify measured Normalized average relative binding affinity (ARB), HLA B*5401 for MXXXXXXXX [3064.0011] .
1.0

Given XXFXXXXXX [3064.0045] , respond with its Normalized average relative binding affinity (ARB), HLA B*5401.
0.11

// Input: DXXXXXXXX [3064.0003] . Output its Normalized average relative binding affinity (ARB), HLA B*5401 only.
0.050

Indicate the recorded Normalized average relative binding affinity (ARB), HLA B*5401 value for this sequence: XXXCXXXXX [3064.0062]
0.22

Please give the documented Normalized average relative binding affinity (ARB), HLA B*5401 of XXXDXXXXX [3064.0063]
0.28

Answer with the recorded Normalized average relative binding affinity (ARB), HLA B*5401 for the sequence listed here: XHXXXXXXX [3064.0027]
0.0014

Name the recorded Normalized average relative binding affinity (ARB), HLA B*5401 of the item VXXXXXXXX [3064.0018] in your answer.
0.032

Please give measured Normalized average relative binding affinity (ARB), HLA B*5401 of the following entry: XLXXXXXXX [3064.0030]
0.0037

Indicate its recorded Normalized average relative binding affinity (ARB), HLA B*5401; the sequence in question is XXRXXXXXX [3064.0055]
0.062

Name the recorded Normalized average relative binding affinity (ARB), HLA B*5401 of the item LXXXXXXXX [3064.0010] in your answer.
0.19

Identify measured Normalized average relative binding affinity (ARB), HLA B*5401 associated with XAXXXXXXX [3064.0021]
1.0

Using known records, supply Normalized average relative binding affinity (ARB), HLA B*5401 for FXXXXXXXX [3064.0005]
0.74

Return reported Normalized average relative binding affinity (ARB), HLA B*5401. Input sequence: XRXXXXXXX [3064.0035]
0.0042

For the sequence IXXXXXXXX [3064.0008] , report Normalized average relative binding affinity (ARB), HLA B*5401.
0.27

Provide measured Normalized average relative binding affinity (ARB), HLA B*5401 value, entry: XXKXXXXXX [3064.0049]
0.015

For the sequence WXXXXXXXX [3064.0019] , give its reported Normalized average relative binding affinity (ARB), HLA B*5401.
0.14

Where do these numbers come from? They come from paper PMC2248166.
